Numbers sourced from PubChem BioAssay (NCI).

tested on: HS 578T breast; test: NCI tumour cell line growth inhibition, 48 h

>  <compound>
COc1cc(CC2CC(c3ccc4c(c3)OCO4)OC2=O)cc(OC)c1OC (stereo not drawn)

>  <TGI>
> 100 µM

$$$$
>  <compound>
C#CCOc1cccc(Nc2ncc3ncn(C4CCN(C(=O)CCl)C4)c3n2)c1 (stereo not drawn)

>  <TGI>
> 62.5 µM

$$$$
>  <compound>
O=C(Nc1cccc([N+](=O)[O-])c1)c1cc2ccccc2cc1O

>  <TGI>
10.4 µM

$$$$

* * *

test system: OVCAR-8 ovarian; assay: NCI tumour cell line growth inhibition, 48 h
readout label: TGI

>  <compound>
CCCCCCCCCCCCCCC(O)C1CCC(C(O)CCC(O)CCCCCC(O)CC2=CC(C)OC2=O)O1 (stereo not drawn)

>  <readout label>
TGI

>  <result value>
14.8 µM

$$$$
>  <compound>
COc1cc(C(=O)C/C(CCC(=O)Nc2ccc(Cl)cc2Cl)=N/Nc2nnc(C)n2N)ccc1O

>  <readout label>
TGI

>  <result value>
> 100 µM

$$$$
>  <compound>
NC(=S)N/N=C\c1nccc2c(C(F)(F)C(F)(F)C(F)(F)F)cccc12

>  <readout label>
TGI

>  <result value>
1.59 µM

$$$$
>  <compound>
O=c1cccccc1NCCNc1cccccc1=O

>  <readout label>
TGI

>  <result value>
> 100 µM

$$$$
>  <compound>
COc1ccc(N2C(=O)C(N3C(=O)C=CC3=O)C2C=O)cc1 (stereo not drawn)

>  <readout label>
TGI

>  <result value>
> 100 µM

$$$$
>  <compound>
CC(C)CC(NC(=O)C(COc1ccc([N+](=O)[O-])cc1)Cc1ccccc1)C(=O)Nc1ccccc1 (stereo not drawn)

>  <readout label>
TGI

>  <result value>
27.4 µM

$$$$
>  <compound>
CNC(C)Cc1ccc(O)cc1 (stereo not drawn)

>  <readout label>
TGI

>  <result value>
> 100 µM

$$$$
>  <compound>
N#C/C(=C\c1cccnc1)c1nc2ccccc2o1

>  <readout label>
TGI

>  <result value>
> 100 µM

$$$$
